Experiment: qHTS for Inhibitors of human tyrosyl-DNA phosphodiesterase 1 (TDP1): qHTS in cells in absence of CPT; further: nearly all actives have a fitted effect of over 55% in size
Conditions: DT40 Tdp1-/- hTDP1 cells, no CPT, ATP luminescence, 48 h
Hit rate of the full screen: of about 420,000 compounds, about 64,000 (15%) were called active. Roughly 27% stayed inconclusive and do not appear here. The call rests on the fitted dose curve; in most records, active means well fitted inhibition curve with a large enough effect; inconclusive means small, poorly fitted or top-dose-only effect; inactive means flat fitted curve, though single readings scatter. Only a sample is shown.
Hello, when you answer, please use one of the following outcomes: active, inactive

# compound, class
data = [
    ("Cc1ccc(CN2CCNC(=O)C2CC(=O)NCc2csc(C(C)C)n2)cc1 (stereo unspecified)", "inactive"),
]

Write down the call the test reported for this compound. Item: COc1cc(OC)cc(C(=O)NCCCn2ccnc2)c1
inactive

Write down the call the test reported for this compound. Item: COc1cccc(-c2nn(-c3ccccc3)cc2/C=C(\C#N)C(=O)NCCCn2ccnc2)c1
active

Write down the call the test reported for this compound. Item: Oc1ccc2ccc3cccc[n+]3c2c1
inactive

Write down the call the test reported for this compound. Item: Cc1cc(OC(=O)c2ccccc2)c([N+](=O)[O-])c(=O)[nH]1
inactive

Write down the call the test reported for this compound. Item: Cc1cccc(NC(=O)CSc2nnc(NC(=O)CN3CCOCC3)s2)c1
inactive

====

Assay: qHTS for Inhibitors of human tyrosyl-DNA phosphodiesterase 1 (TDP1): qHTS in cells in absence of CPT; further: nearly all actives have a fitted effect of over 55% in size
Conditions: DT40 Tdp1-/- hTDP1 cells, no CPT, ATP luminescence, 48 h
Procedure: Human tyrosyl-DNA phosphodiesterase 1 (TDP1) is a novel repair gene, and we propose to use it as a new target for anticancer drug development. […] For the primary screen, Tdp1-/-;hTDP1 cells will be exposed to small molecules in the presence or absence of CPT, and their growth kinetics will be evaluated after 48 hours by measuring ATP activity. […] The hit compounds will then be evaluated in the presence or absence of CPT using Tdp1-/- cells. […]
The whole screen tested about 420,000 compounds, of which about 64,000 (15%) were called active. Inconclusive results (about 27%) are left out. The call rests on the fitted dose curve; in most records, active means well fitted inhibition curve with a large enough effect; inconclusive means small, poorly fitted or top-dose-only effect; inactive means flat fitted curve, though single readings scatter. A selection follows.
Hello, when you answer, please use one of the following outcomes: YES = active, NO = inactive

Observe how each entry below is paired with its result.
# compound, class
measured = [
    ("CCOc1ccc(Nc2ncnc3scc(-c4ccc(OC)cc4)c23)cc1", "YES"),
    ("CC(NC(=O)c1ccc(S(=O)(=O)Nc2ccccc2)cc1)c1ccc(S(N)(=O)=O)cc1 (stereo not given)", "NO"),
    ("O=C(O)CCCCCCCCc1cn(CN2C(=O)c3ccccc3C2=O)nn1", "NO"),
]

Write down the call the test reported for this compound. Item: COc1ccc(OC)c(NC(=O)C2CCCN2S(=O)(=O)c2cccc3nsnc23)c1 (stereo not given)
NO

Write down the call the test reported for this compound. Item: Cc1ccc(SCCN2C(=O)NC(C)(C)C2=O)cc1
NO

Write down the call the test reported for this compound. Item: CCOC(=O)c1ccc(NC(=O)Cn2c(=O)cc(C)c3c(C)nn(-c4cccc(F)c4)c32)cc1
YES

Write down the call the test reported for this compound. Item: CCc1ccc(-n2nc(C)c3c(C)cc(=O)n(CC(=O)Nc4ccc(F)cc4C)c32)cc1
NO

Write down the call the test reported for this compound. Item: O=C(NCc1cccnc1)c1nc(-c2cccs2)no1
NO

Write down the call the test reported for this compound. Item: COc1ccc(-c2csc3ncnc(Oc4ccc5c(C)cc(=O)oc5c4)c23)cc1
NO

Write down the call the test reported for this compound. Item: CCOC(=O)c1sc2nc(C)nc(Nc3ccc(OC)c(OC)c3)c2c1C
NO
